Documented pIC50 across a set of compounds
Target: FGFR3 (Homo sapiens (Human), UniProt P22607)
Sequence (P22607 23-806): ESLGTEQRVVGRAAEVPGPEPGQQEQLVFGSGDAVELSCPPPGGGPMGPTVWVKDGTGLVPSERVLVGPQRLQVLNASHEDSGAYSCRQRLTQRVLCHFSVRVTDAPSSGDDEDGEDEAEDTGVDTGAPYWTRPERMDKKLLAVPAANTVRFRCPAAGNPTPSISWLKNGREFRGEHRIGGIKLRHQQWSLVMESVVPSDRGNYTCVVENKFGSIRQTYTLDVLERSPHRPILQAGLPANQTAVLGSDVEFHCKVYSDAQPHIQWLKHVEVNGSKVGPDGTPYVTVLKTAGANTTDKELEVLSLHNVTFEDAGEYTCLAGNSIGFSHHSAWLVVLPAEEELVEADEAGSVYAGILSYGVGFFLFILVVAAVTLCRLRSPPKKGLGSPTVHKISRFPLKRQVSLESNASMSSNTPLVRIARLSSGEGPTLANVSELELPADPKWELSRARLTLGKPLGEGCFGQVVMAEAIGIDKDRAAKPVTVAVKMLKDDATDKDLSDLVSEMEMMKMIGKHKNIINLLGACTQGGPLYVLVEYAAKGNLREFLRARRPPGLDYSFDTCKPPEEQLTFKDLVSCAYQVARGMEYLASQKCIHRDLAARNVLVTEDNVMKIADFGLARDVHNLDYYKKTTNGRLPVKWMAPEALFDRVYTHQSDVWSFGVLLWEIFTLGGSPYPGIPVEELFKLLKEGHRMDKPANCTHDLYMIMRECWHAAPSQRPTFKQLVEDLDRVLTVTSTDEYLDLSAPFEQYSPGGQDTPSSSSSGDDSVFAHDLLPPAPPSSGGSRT
Assay: FGFR biochemical assay (LanthaScreen TR-FRET kinase assay), FGFR3
Conditions: read-out: FGFR3 IC50; incubation with enzyme at room temperature for 10 minutes before substrate; ATP 35 μM; FGFR3 0.1 nM
pIC50: −log10 of the molar value.

Use these answered entries as a reference point.
C=CC(=O)Nc1ccc(-c2c(-c3ccc(Oc4cccc(C)n4)cc3)c(C(N)=O)c3cnccn23)cn1 [Example 3] :: > 8.00
C=C(F)C(=O)Nc1ccc(-c2c(-c3ccc(Oc4cc(C)ccn4)cc3)c(C(N)=O)c3cnc(C)cn23)cc1 [Example 52] :: < 6.00
C=CC(=O)Nc1ccc(-c2c(-c3ccc(C(=O)NCC4(F)COC4)cc3)c(C(N)=O)c3cnc(C)cn23)cc1 [Example 64] :: > 8.00

Would you kindly look at the next entry?
Item under review: C=CC(=O)Nc1ccc(-c2c(-c3ccc(Oc4cccc(C)n4)c(F)c3)c(C(N)=O)c3cnccn23)cc1 [Example 32] . Reported pIC50? > 8.00

###

Target: FGFR2 (Homo sapiens (Human), UniProt P21802)
Sequence (P21802 22-821): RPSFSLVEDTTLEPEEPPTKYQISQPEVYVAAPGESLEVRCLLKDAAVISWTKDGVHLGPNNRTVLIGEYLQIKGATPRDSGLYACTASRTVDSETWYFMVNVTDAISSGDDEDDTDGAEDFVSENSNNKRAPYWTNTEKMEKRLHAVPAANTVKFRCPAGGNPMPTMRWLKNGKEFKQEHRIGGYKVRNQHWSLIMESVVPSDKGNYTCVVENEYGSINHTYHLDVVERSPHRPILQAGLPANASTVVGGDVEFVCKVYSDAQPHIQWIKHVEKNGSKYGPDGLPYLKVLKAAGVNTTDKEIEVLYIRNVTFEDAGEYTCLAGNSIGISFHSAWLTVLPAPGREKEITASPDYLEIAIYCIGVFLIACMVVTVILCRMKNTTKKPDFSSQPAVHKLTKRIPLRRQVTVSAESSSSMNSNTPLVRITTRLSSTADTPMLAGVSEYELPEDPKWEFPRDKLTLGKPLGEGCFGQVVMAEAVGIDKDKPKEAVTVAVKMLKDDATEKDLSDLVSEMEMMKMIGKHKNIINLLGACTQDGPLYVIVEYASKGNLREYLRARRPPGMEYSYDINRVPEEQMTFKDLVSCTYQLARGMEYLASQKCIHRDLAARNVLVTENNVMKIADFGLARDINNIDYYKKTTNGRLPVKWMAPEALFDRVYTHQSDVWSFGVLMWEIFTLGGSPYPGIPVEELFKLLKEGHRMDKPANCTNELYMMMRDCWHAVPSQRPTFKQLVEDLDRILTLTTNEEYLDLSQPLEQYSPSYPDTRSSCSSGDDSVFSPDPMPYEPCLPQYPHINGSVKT
Assay: FGFR biochemical assay (LanthaScreen TR-FRET kinase assay), FGFR2
pIC50: −log10 of the molar value.
Documented pIC50 across a set of compounds

Use these answered entries as a reference point.
C=C(F)C(=O)Nc1ccc(-c2c(-c3cc(F)c(Oc4nccc(C)n4)c(F)c3)c(C(N)=O)c3cnc(C)cn23)cc1 :: 7.00 to 8.00
C=C(C)C(=O)Nc1ccc(-c2c(-c3ccc(Oc4nccc(C)n4)c(F)c3)c(C(N)=O)c3cnccn23)cc1 :: 6.00 to 7.00
C=C(F)C(=O)Nc1ccc(-c2c(-c3ccc(Oc4cc(C)ccn4)cc3)c(C(N)=O)c3cnc(C)cn23)cc1 :: 6.00 to 7.00
C=C(F)C(=O)N1CC2(CC2)c2cc(-c3c(-c4ccc(Oc5nccc(C)n5)c(F)c4)c(C(N)=O)c4cnc(C)cn34)c(F)cc21 :: 7.00 to 8.00
C=CC(=O)Nc1ccc(-c2c(-c3ccc(Oc4cccc(C)n4)cc3)c(C(N)=O)c3cnc(C#N)cn23)cc1 :: 7.00 to 8.00
C=C(F)C(=O)Nc1ccc(-c2c(-c3ccc(Oc4nc(C)cc(C)n4)c(F)c3)c(C(N)=O)c3cnc(C)cn23)cc1 :: 7.00 to 8.00

Item under review: C=CC(=O)Nc1ccc(-c2c(-c3ccc(OC)cc3)c(C(N)=O)c3cnccn23)cc1 . Reported pIC50? 7.00 to 8.00

# repeat for C=CC(=O)Nc1ccc(-c2c(-c3ccc(S(=O)(=O)C4CC4)cc3)c(C(N)=O)c3cnccn23)cc1 6.00 to 7.00

# repeat for C=C(F)C(=O)Nc1ccc(-c2c(-c3ccc(Oc4nccc(C)n4)c(F)c3)c(C(N)=O)c3cncnn23)cc1 7.00 to 8.00

# repeat for C=C(F)C(=O)N1CCCc2cc(-c3c(-c4ccc(Oc5nccc(C)n5)c(F)c4)c(C(N)=O)c4cnc(C)cn34)c(F)cc21 6.00 to 7.00

# repeat for C=CC(=O)N1CC=C(c2c(-c3ccc(Oc4nccc(C)n4)c(F)c3)c(C(N)=O)c3cnc(C)cn23)CC1 7.00 to 8.00

# repeat for C=CC(=O)Nc1ccc(-c2c(-c3ccc(Oc4nccc(C)n4)c(F)c3)c(C(N)=O)c3cnc(C)cn23)cc1C 7.00 to 8.00

# repeat for C=C(F)C(=O)Nc1ccc(-c2c(-c3cccc(C(=O)NC)c3)c(C(N)=O)c3cnc(C)cn23)c(F)c1 6.00 to 7.00

# repeat for C=C(F)C(=O)N1CCc2cc(-c3c(-c4ccc(Oc5nccc(C)n5)c(F)c4)c(C(N)=O)c4ccc(C)nn34)ccc21 7.00 to 8.00

###

Molecular target: FGFR1 (Homo sapiens (Human), UniProt P11362)
Sequence (P11362 22-822): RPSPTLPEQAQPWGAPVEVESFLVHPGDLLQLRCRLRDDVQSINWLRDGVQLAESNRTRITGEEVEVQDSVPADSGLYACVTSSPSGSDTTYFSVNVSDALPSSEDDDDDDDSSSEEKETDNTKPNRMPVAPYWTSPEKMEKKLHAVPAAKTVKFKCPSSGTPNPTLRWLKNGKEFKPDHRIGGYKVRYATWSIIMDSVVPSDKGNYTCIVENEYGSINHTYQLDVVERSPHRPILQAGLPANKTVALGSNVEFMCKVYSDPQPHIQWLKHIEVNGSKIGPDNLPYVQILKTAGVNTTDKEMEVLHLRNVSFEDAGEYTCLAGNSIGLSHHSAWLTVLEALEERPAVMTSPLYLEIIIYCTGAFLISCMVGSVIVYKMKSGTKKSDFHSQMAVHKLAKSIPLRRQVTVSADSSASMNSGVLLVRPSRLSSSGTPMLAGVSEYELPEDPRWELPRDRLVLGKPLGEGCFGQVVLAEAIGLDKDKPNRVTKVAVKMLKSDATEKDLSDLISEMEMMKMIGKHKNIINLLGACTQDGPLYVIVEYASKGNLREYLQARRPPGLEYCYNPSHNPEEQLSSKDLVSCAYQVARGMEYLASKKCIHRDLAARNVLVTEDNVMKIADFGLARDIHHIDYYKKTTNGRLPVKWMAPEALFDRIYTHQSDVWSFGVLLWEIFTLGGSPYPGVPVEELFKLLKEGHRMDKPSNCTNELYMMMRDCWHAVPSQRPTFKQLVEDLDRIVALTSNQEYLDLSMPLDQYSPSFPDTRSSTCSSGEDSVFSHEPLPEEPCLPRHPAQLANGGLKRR
Experiment: FGFR biochemical assay (LanthaScreen TR-FRET kinase assay), FGFR1
Documented IC50 across a set of compounds

Use these answered entries as a reference point.
C=CC(=O)Nc1ccc(-c2c(-c3ccc(Oc4cccc(C)n4)cc3)c(C(N)=O)c3ccnc(C)n23)cc1 :: 100 to 1000 nM
C=CC(=O)Nc1ccc(-c2c(-c3ccc(Oc4nccc(C)n4)c(F)c3)c(C(N)=O)c3cnccn23)cc1 :: 10 to 100 nM
C=CC(=O)Nc1ccc(-c2c(-c3ccc(Oc4cccc(C)n4)c(F)c3)c(C(N)=O)c3cnccn23)cc1 :: 10 to 100 nM

Item under review: C=CC(=O)Nc1ccc(-c2c(-c3ccc(Oc4cccc(C)n4)cc3)c(C(N)=O)c3cnc(C4CN(C)C4)cn23)cc1 . Reported IC50? 100 to 1000 nM

# repeat for C=CC(=O)Nc1ccc(-c2c(-c3ccc(Oc4nc(C)cs4)cc3)c(C(N)=O)c3cnccn23)cc1 10 to 100 nM

# repeat for C=CC(=O)N1CC=C(c2c(-c3ccc(Oc4nccc(C)n4)c(F)c3)c(C(N)=O)c3cnc(C)cn23)CC1 10 to 100 nM

# repeat for C=CC(=O)Nc1ccc(-c2c(-c3ccc(Oc4nccc(C)n4)c(F)c3)c(C(N)=O)c3cnc(C)cn23)cn1 10 to 100 nM

# repeat for C=CC(=O)Nc1ccc(-c2c(-c3ccc(Oc4ccccn4)cc3)c(C(N)=O)c3cnccn23)cc1 100 to 1000 nM

# repeat for C=CC(=O)Nc1ccc(-c2c(-c3ccc(Oc4nccc(C)n4)c(F)c3)c(C(N)=O)c3cnc(C)cn23)cc1 10 to 100 nM

# repeat for C=CC(=O)Nc1ccc(-c2c(-c3ccc(OC4CCCC4)cc3)c(C(N)=O)c3cnccn23)cc1 100 to 1000 nM

# repeat for C=CC(=O)Nc1ccc(-c2c(-c3ccc(Oc4cccc(C)n4)cc3)c(C(N)=O)c3cccnn23)cc1 10 to 100 nM

# repeat for C=C(F)C(=O)Nc1ccc(-c2c(-c3ccc(Oc4nccc(C)n4)c(F)c3)c(C(N)=O)c3cc(-c4cnn(C)c4)ncn23)c(C)c1 10 to 100 nM

# repeat for C=C(F)C(=O)Nc1ccc(-c2c(-c3ccc(Oc4nccc(C)n4)c(F)c3)c(C(N)=O)c3cc(C)ncn23)cc1 100 to 1000 nM

# repeat for C=CC(=O)Nc1ccc(-c2c(-c3ccc(Oc4cccc(C)n4)cc3)c(C(N)=O)c3cnc(C)cn23)cc1 100 to 1000 nM

# repeat for C=CC(=O)Nc1cc(C)c(-c2c(-c3ccc(Oc4cccc(C)n4)cc3)c(C(N)=O)c3cnccn23)cn1 10 to 100 nM

# repeat for C=C(F)C(=O)N1CCc2c1ccc(-c1c(-c3ccc(Oc4nccc(C)n4)c(F)c3)c(C(N)=O)c3cnc(C)cn13)c2F 10 to 100 nM

# repeat for C=C(F)C(=O)Nc1ccc(-c2c(-c3ccc(Oc4nccc(C)n4)cc3)c(C(N)=O)c3cnc(C(F)(F)F)cn23)cc1 100 to 1000 nM

# repeat for C=CC(=O)Nc1ccc(-c2c(-c3ccc(Oc4cccc(C)n4)cc3)c(C(N)=O)c3cnc(S(=O)(=O)NC)cn23)cc1 100 to 1000 nM

# repeat for C=CC(=O)Nc1ccc(-c2c(-c3ccc(Oc4cccc(C)n4)cc3)c(C(N)=O)c3cnc(C4COC4)cn23)cc1 10 to 100 nM

# repeat for C=C(F)C(=O)Nc1ccc(-c2c(-c3ccc(Oc4nccc(C)n4)c(F)c3)c(C(N)=O)c3cc(-c4cnn(C)c4)ncn23)c(F)c1 10 to 100 nM

# repeat for C=C(F)C(=O)Nc1ccc(-c2c(-c3cccc(C(=O)NC)c3)c(C(N)=O)c3cnc(C)cn23)c(F)c1 100 to 1000 nM

###

Biological target: FGFR1 (Homo sapiens (Human))
Test: FGFR biochemical assay (LanthaScreen TR-FRET kinase assay), FGFR1
Details: read-out: FGFR1 IC50; incubation with enzyme at room temperature for 10 minutes before substrate; ATP 28 μM; FGFR1 0.01 nM
pIC50: −log10 of the molar value.
Property Measured: pIC50

C=CC(=O)Nc1ccc(-c2c(-c3ccc(Oc4nccc(C)n4)c(F)c3)c(C(N)=O)c3cnc(C)cn23)cc1C :: < 6.00
C=C(F)C(=O)Nc1ccc(-c2c(-c3ccc(Oc4cc(C)ccn4)cc3)c(C(N)=O)c3cnc(C)cn23)cc1 :: < 6.00
C=CC(=O)Nc1ccc(-c2c(-c3ccc(Oc4cccc(C)n4)cc3)c(C(N)=O)c3cnccn23)cn1 :: > 8.00

Would you kindly look at the next entry?
Item under review: C=CC(=O)N1CCc2cc(-c3c(-c4ccc(Oc5cccc(C)n5)cc4)c(C(N)=O)c4cnccn34)ccc21 . Reported pIC50? > 8.00

###

Molecular target: FGFR1 (Homo sapiens (Human), UniProt P11362)
Assay: FGFR biochemical assay (LanthaScreen TR-FRET kinase assay), FGFR1
pIC50: −log10 of the molar value.
Property Measured: pIC50

C=CC(=O)Nc1ccc(-c2c(-c3ccc(Oc4nccc(C)n4)c(F)c3)c(C(N)=O)c3cnc(CO)cn23)cc1 :: 6.00 to 7.00
Cc1cn2c(-c3ccc(NC(=O)/C=C/CN(C)C)nc3)c(-c3ccc(Oc4cccc(C)n4)cc3)c(C(N)=O)c2cn1 :: 7.00 to 8.00
C=CC(=O)Nc1ccc(-c2c(-c3ccc(Oc4cccc(C)n4)cc3)c(C(N)=O)c3cnc(CO)cn23)cc1 :: 6.00 to 7.00
C=C(F)C(=O)N1CCc2cc(-c3c(-c4ccc(Oc5nccc(C)n5)c(F)c4)c(C(N)=O)c4ccc(C)nn34)c(C)cc21 :: 7.00 to 8.00
C=C(F)C(=O)Nc1ccc(-c2c(-c3cc(F)c(Oc4nccc(C)n4)c(F)c3)c(C(N)=O)c3cnc(C)cn23)cc1 :: 6.00 to 7.00
C=CC(=O)Nc1ccc(-c2c(-c3ccc(Oc4cccc(C)n4)cc3)c(C(N)=O)c3cncc(C)n23)cc1 :: 6.00 to 7.00

Give pIC50 (FGFR1 (Homo sapiens (Human), UniProt P11362)) of the following molecule: C=C(F)C(=O)Nc1ccc(-c2c(-c3ccc(Oc4nccc(C)n4)cc3)c(C(N)=O)c3cnc(NC(C)=O)cn23)cc1 6.00 to 7.00

# repeat for C=CC(=O)Nc1ccc(-c2c(-c3ccc(Oc4cccc(C)n4)cc3)c(C(N)=O)c3cnc(OC)cn23)cc1 7.00 to 8.00

# repeat for C=C(F)C(=O)Nc1ccc(-c2c(-c3ccc(Oc4nccc(C)n4)c(F)c3)c(C(N)=O)c3ccc(C)nn23)cc1 6.00 to 7.00
